Biological target: T1, human IL-1α (human, UniProt P01583 113-271)
T1 construct: also called IL-1alpha; hIL-1α
T1 sequence (looked up): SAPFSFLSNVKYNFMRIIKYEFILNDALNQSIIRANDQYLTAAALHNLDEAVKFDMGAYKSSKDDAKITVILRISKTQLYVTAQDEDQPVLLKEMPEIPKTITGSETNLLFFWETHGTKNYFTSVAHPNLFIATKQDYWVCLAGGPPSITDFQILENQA
Test: Table 62 KD; BIAcore presumed
pKd: −log10 of the molar value.
We use 9 as the dividing line for pKd: on or above the line is Fulfilled, below is Not fulfilled.

INSERT INTO assay_data (binder, classification) VALUES
  ('ABT1-95-3 (other, VK dAb) VL: DIQMTQSPSSLSASVGDRVTITCRASQPIHGNLRWYQQKPGKAPKLLIYSSSYLQSGVPSRFSGSGSGTDFTLTISSLQPEDFATYHCQQGYRWPVTFGQGTKVEIKR', 'Not fulfilled'),
  ('ABT1-6-23 (other, VH dAb) VH: EVQLLESGGGLVQPGGSLRLSCAASGFTFVRYDMAWVRQAPGKGLEWVSSIYKSGALTSYADSVKGRFTISRDNSKNTLYLQMNSLRAEDTAVYYCAKGWASFDYWGQGTLVTVSS', 'Not fulfilled'),
  ('ABT1-95-8 (other, VK dAb) VL: DIQMTQSPSSLSASVGDRVTITCRASQPIQGNLRWYQQKPGKAPKLLIYSSSYLERGVPSRFSGSGSGTDFTLTISSLQPEDFATYHCQQGYRWPVTFGQGTKVEIKR', 'Not fulfilled'),
  ('ABT1-95-6 (other, VK dAb) VL: DIQMTQSPSSLSASVGDRVTITCRASQPIQGNLRWYQQKPGKAPKLLIYSSSYLESGVPSRFSGSGSGTDFTLTISSLQPEDFATYHCQQGYRWPVTFGQGTKVEIKR', 'Not fulfilled'),
  ('ABT1-95-15 (other, VK dAb) VL: DIQMTQSPSSLSASVGDRVTITCRASQPIVRNLRWYQQKPGKAPKLLIYSSSYLEPGVPSRFSGSGSGTDFTLTISSLQPEDFATYHCQQGYRWPVTFGQGTKVEIKR', 'Fulfilled');
